- assay.name: Metabolic (microsomal) stability assay, human liver microsomes (HLM)
- Format: in vitro ADME
- conditions.used: predicted clearance as percent of liver blood flow, 1 μM
Documented HLM QH across a set of compounds

| compound | HLM QH |
| --- | --- |
| CO[C@@H]1C[C@@H]([C@H](C)Oc2cc(N3CCN(C)C4(COC4)C3)nc(-c3noc4c3CCC[C@@]43CCCc4sc(N)c(C#N)c43)n2)N(C)C1 [II-153] | 58% |

The compound listed as C[C@H](Oc1cc(-n2ccc(-c3cn([C@@H]4CCOC4)nn3)n2)nc(-c2noc3c2CCC[C@@]32CCCc3sc(N)c(C#N)c32)n1)[C@@H]1CCCN1C [II-211] shows HLM QH equal to <24%

The reported HLM QH of the compound C[C@@H]1CN(c2cc(O[C@@H](C)[C@@H]3CCCN3C)nc(-c3noc4c3CCC[C@@]43CCCc4sc(N)c(C#N)c43)n2)C[C@H](C)N1 [II-36] was <24%

Short answer for CCOC(=O)c1ccn(-c2cc(O[C@@H](C)[C@@H]3CCCN3C)nc(-c3noc4c3CCC[C@@]43CCCc4sc(N)c(C#N)c43)n2)n1 [II-23] : HLM QH was <24%

The value of HLM QH measured for the compound C[C@H](Oc1cc(-n2ccc(-c3cnccn3)n2)nc(-c2noc3c2CCC[C@@]32CCCc3sc(N)c(C#N)c32)n1)[C@@H]1CCCN1C [II-130] turned out to be <24%

The recorded HLM QH for entry CNC(=O)c1cn(-c2cc(O[C@@H](C)[C@@H]3CCCN3C)nc(-c3noc4c3CCC[C@@]43CCCc4sc(N)c(C#N)c43)n2)nn1 [II-122] equals 35%

====

- System: LOVO cells
- assay.name: LOVO CTG proliferation assay (120 h) (CRC, G13D)
- Format: cell-based
- conditions.used: Homo sapiens, CTG 120 h
experimental.readout: IC50 (nM)

Worked set:
| structure.notation | experimental.readout | measured.number |
| --- | --- | --- |
| CO[C@@H]1C[C@@H]([C@H](C)Oc2cc(N3CCN(C)C4(COC4)C3)nc(-c3noc4c3CCC[C@@]43CCCc4sc(N)c(C#N)c43)n2)N(C)C1 | IC50 | 283 |
| C[C@H](Oc1cc(-n2ccc(-c3cn(C4CCOCC4)nn3)n2)nc(-c2noc3c2CCC[C@@]32CCCc3sc(N)c(C#N)c32)n1)[C@@H]1CCCN1C | IC50 | 35 |

[a] C[C@H](Oc1cc(N2C[C@H](C)N[C@@H](C)C2)nc(-c2onc3c2CCC[C@@]32CCCc3sc(N)c(C#N)c32)n1)[C@@H]1CCCN1C
[b] C[C@H](Oc1cc(C2=CCNCC2)nc(-c2noc3c2CCC[C@@]32CCCc3sc(N)c(C#N)c32)n1)[C@@H]1CCCN1C
[c] C[C@H](Oc1cc(N2CCNC[C@@]23CCOC3)nc(-c2noc3c2CCC[C@@]32CCCc3sc(N)c(C#N)c32)n1)[C@@H]1CCCN1C
[d] C[C@H](Oc1cc(-n2ccc(C(N)=O)n2)nc(-c2noc3c2CCC[C@@]32CCCc3sc(N)c(C#N)c32)n1)[C@@H]1CCCN1C
Hi! Can you put these in order of IC50, lowest number first? Your reply should list the labels following the order given in the request. d, b, c, a

====

solubility at 24 h values for the compounds below.
- assay.name: Solubility measurement (DMSO solution method), McIlvaine buffer pH 4.5 or 6.8
- Assay type: physicochemical
- conditions.used: aqueous buffer, kinetic from dmso stock; McIlvaine buffer pH 6.8; DMSO stock diluted to 250 μM; 24 h shaking at ambient temperature; read-out: solubility pH 6.8

Below, 5 compounds whose answers are already recorded.
| compound | solubility at 24 h |
| --- | --- |
| C[C@H](Oc1cc(-n2ccc(-c3cn([C@@H]4CCOC4)nn3)n2)nc(-c2noc3c2CCC[C@@]32CCCc3sc(N)c(C#N)c32)n1)[C@@H]1CCCN1C [II-211] | 4 µg/mL |
| C[C@H](Oc1cc(-c2ccn(-c3ccccc3)n2)nc(-c2noc3c2CCC[C@@]32CCCc3sc(N)c(C#N)c32)n1)[C@@H]1CCCN1C [II-89] | < 1 µg/mL |
| C[C@H](Oc1cc(-n2cc(-c3cccnc3)nn2)nc(-c2noc3c2CCC[C@@]32CCCc3sc(N)c(C#N)c32)n1)[C@@H]1CCCN1C [II-123] | < 1 µg/mL |
| C[C@H](Oc1cc(-c2ccn(-c3ccsc3)n2)nc(-c2noc3c2CCC[C@@]32CCCc3sc(N)c(C#N)c32)n1)[C@@H]1CCCN1C [II-84] | < 1 µg/mL |
| CO[C@H]1CCN(C)[C@@H]1[C@H](C)Oc1cc(-n2ccc(C(=O)N[C@@H](C)c3ccccn3)n2)nc(-c2noc3c2CCC[C@@]32CCCc3sc(N)c(C#N)c32)n1 [II-196] | < 1 µg/mL |

Shifting focus to the compound that follows.
Noted for C[C@H](Oc1cc(-n2cc(Cn3cncn3)nn2)nc(-c2noc3c2CCC[C@@]32CCCc3sc(N)c(C#N)c32)n1)[C@@H]1CCCN1C [II-124] : its solubility at 24 h reads 108 µg/mL

====

The compounds listed here are annotated with their HLM QH.
- assay.name: Metabolic (microsomal) stability assay, human liver microsomes (HLM)
- Assay type: in vitro ADME
- conditions.used: predicted clearance as percent of liver blood flow, 1 μM

Here's what some known entries look like.
| compound | HLM QH |
| --- | --- |
| CO[C@H]1CCN(C)[C@@H]1[C@H](C)Oc1cc(N2CCN(C)C3(CC3)C2)nc(-c2noc3c2CCC[C@@]32CCCc3sc(N)c(C#N)c32)n1 [II-186] | 49% |
| C[C@H](Oc1cc(N2CCNC[C@]23CCOC3)nc(-c2onc3c2CCC[C@@]32CCCc3sc(N)c(C#N)c32)n1)[C@@H]1CCCN1C [I-12] | 36% |
| C[C@H](Oc1cc(N2CCNC3(CC3)C2)nc(-c2onc3c2CCC[C@@]32CCCc3sc(N)c(C#N)c32)n1)[C@@H]1CCCN1C [I-5] | <24% |
| C[C@H](Oc1cc(N2CCN(C)C3(CC3)C2)nc(-c2onc3c2CCC[C@@]32CCCc3sc(N)c(C#N)c32)n1)[C@@H]1CCCN1C [I-41] | <24% |
| C[C@H](Oc1cc(-n2ccnc2)nc(-c2noc3c2CCC[C@@]32CCCc3sc(N)c(C#N)c32)n1)[C@@H]1CCCN1C [II-69] | <24% |

Lookup result for C[C@H](Oc1cc(N2CCNC3(COC3)C2)nc(-c2onc3c2CCC[C@@]32CCCc3sc(N)c(C#N)c32)n1)[C@@H]1CCCN1C [I-4] ; measured HLM QH: <24%

Short answer for C[C@H](Oc1cc(N2CCOC3(CC3)C2)nc(-c2noc3c2CCC[C@@]32CCCc3sc(N)c(C#N)c32)n1)[C@@H]1CCCN1C [II-61] : HLM QH was <24%

# HLM QH (compound: C[C@H](Oc1cc([C@@H]2CCOC2)nc(-c2noc3c2CCC[C@@]32CCCc3sc(N)c(C#N)c32)n1)[C@@H]1CCCN1C [II-94] ) is 48%

Summary for this compound, CO[C@H]1CCN(C)[C@@H]1[C@H](C)Oc1cc(N2CCNC3(CC3)C2)nc(-c2noc3c2CCC[C@@]32CCCc3sc(N)c(C#N)c32)n1 [II-184] : HLM QH is 60%

// HLM QH lookup, compound = C[C@H]1CNCCCN1c1nc(-c2onc3c2CCC[C@@]32CCCc3sc(N)c(C#N)c32)cc(C(F)(F)F)n1 [I-15] , result: 38%

Please fill in: HLM QH reported for C[C@H](Oc1cc(N2CC[C@@H](N(C)C)C2)nc(-c2noc3c2CCC[C@@]32CCCc3sc(N)c(C#N)c32)n1)[C@@H]1CCCN1C [II-47] = <24%

response.value for C[C@H](Oc1cc(N2CC[C@H](N3CCCC3)C2)nc(-c2noc3c2CCC[C@@]32CCCc3sc(N)c(C#N)c32)n1)[C@@H]1CCCN1C [II-14] (field: HLM QH) = <24%

Entry CC(=O)N1CC=C(c2cc(O[C@@H](C)[C@@H]3CCCN3C)nc(-c3noc4c3CCC[C@@]43CCCc4sc(N)c(C#N)c43)n2)CC1 [II-81] ; HLM QH = <24%

====

- assay.name: Metabolic (microsomal) stability assay, human liver microsomes (HLM)
- Type: in vitro ADME
- conditions.used: predicted clearance as percent of liver blood flow, 1 μM
experimental.readout: HLM QH (%)

| structure.notation | unit.spec | HLM QH |
| --- | --- | --- |
| C[C@H](Oc1cc(N2CCNC3(CC3)C2)nc(-c2onc3c2CCC[C@@]32CCCc3sc(N)c(C#N)c32)n1)[C@@H]1C[C@@H](F)CN1C | % | 45 |

[A] [2H]C([2H])([2H])N1C[C@H](F)C[C@H]1[C@H](C)Oc1cc(N2CCN(C([2H])([2H])[2H])C3(CC3)C2)nc(-c2noc3c2CCC[C@@]32CCCc3sc(N)c(C#N)c32)n1
[B] C[C@H](Oc1cc(-n2cncn2)nc(-c2noc3c2CCC[C@@]32CCCc3sc(N)c(C#N)c32)n1)[C@@H]1CCCN1C
Field: lower recorded HLM QH (choose A or B ) Respond using the label that marks the chosen record. A
(A: 40%, B: 61%)
